- Experimental Parameters: PAMPA, PAMPA_Papp_Avg (apparent permeability)
We begin with a simple list: items and their reported Papp.
I only need the number, in ×10⁻⁶ cm/s, no unit after it.

CC(C)C[C@H]1NC(=O)[C@H]2CCCN2C(=O)[C@@H]2CCCN2C(=O)[C@@H](Cc2ccccc2)NC(=O)[C@@H](C(C)C)NC(=O)[C@H](CC(C)C)N(C)C(=O)[C@@H](Cc2ccccc2)NC1=O (single isomer, unassigned) [Design D7.7.p2, Pplf*Lvf]	9.06

Pending compound:
Challenge: Look up Papp for this compound: CC[C@H](C)[C@@H]1NC(=O)[C@@H](CC(C)C)NC(=O)[C@H](CC(C)C)N(C)C(=O)[C@H](Cc2ccccc2)NC(=O)CN(C)C(=O)[C@@H]2CCCN2C(=O)[C@H](C(C)C)NC(=O)[C@H](Cc2ccccc2)N(C)C(=O)[C@H]2CCCN2C(=O)[C@H](CC(C)C)NC1=O (single isomer, unassigned) [Design D10.1.p1, lILp*FVP*GF*L]
Response given: 3.92

---

- Protocol Description: in vivo
- Experimental Parameters: male, Swiss Albino, mouse, iv, 1 mg/kg, Plasma concentration
Where a SMILES comes first, the peptide text is derived from it. [ ]: non-standard residue; d: D form. dNMeI = CC[C@@H](C)[C@@H](NC)C(=O)O; NMeL = CN[C@@H](CC(C)C)C(=O)O
Quantity Name: level at 8 h (ng/mL)
I only need the number, in ng/mL, no unit after it.

Challenge: Look up level at 8 h for this compound: CC[C@@H](C)[C@H]1NC(=O)[C@H]([C@@H](C)CC)NC(=O)[C@H](CC(C)C)N(C)C(=O)[C@H]2CCCN2C(=O)[C@@H]([C@H](C)CC)NC(=O)[C@@H]([C@H](C)CC)N(C)C(=O)[C@H](CC(C)C)NC(=O)[C@H]2CCCN2C(=O)[C@@H]2CCCN2C(=O)[C@H](C(C)C)NC(=O)[C@H]2CCCN2C1=O [Design D11.3, VPpL*iip*LIip] (cyclo(I[dI][dP]VP[dP]L[dNMeI][dI][dP][NMeL]))
Response given: 235

---

- Experimental Parameters: PAMPA, PAMPA_Papp_Avg (apparent permeability)
Where a SMILES comes first, the peptide text is derived from it. [ ]: non-standard residue; d: D form. dNMeF = CN[C@H](Cc1ccccc1)C(=O)O; NMeL = CN[C@@H](CC(C)C)C(=O)O
Quantity Name: Papp (×10⁻⁶ cm/s)
I only need the number, in ×10⁻⁶ cm/s, no unit after it.

Answered cases to consult:
CC(C)C[C@@H]1NC(=O)[C@@H](Cc2ccccc2)N(C)C(=O)[C@H](C(C)C)NC(=O)[C@H](C)NC(=O)[C@@H](C)NC(=O)[C@@H](Cc2ccccc2)N(C)C(=O)[C@@H]2CCCN2C(=O)[C@H](C(C)C)NC(=O)[C@@H]2CCCN2C(=O)[C@@H](C)NC1=O [Design D10.48, aPVP*faAV*fL] (cyclo(AV[dNMeF]L[dA]PVP[dNMeF][dA]))	0.716
CC[C@@H](C)[C@H]1NC(=O)[C@H]2CCCN2C(=O)[C@@H]2CCCN2C(=O)[C@@H]([C@H](C)CC)NC(=O)[C@@H](Cc2ccccc2)NC(=O)[C@@H](Cc2ccccc2)N(C)C(=O)[C@@H]2CCCN2C(=O)[C@@H](C(C)C)NC1=O [Design D8.33, fiPpivP*f] (cyclo(P[dNMeF][dF][dI]P[dP][dI][dV]))	6

Pending compound:
Challenge: Look up Papp for this compound: CC[C@H](C)[C@@H]1NC(=O)[C@H](CC(C)C)N(C)C(=O)[C@H]2CCCN2C(=O)[C@H]2CCCN2C(=O)[C@H](Cc2ccccc2)NC(=O)[C@@H](CC(C)C)NC(=O)[C@H]2CCCN2C(=O)[C@@H]2CCCN2C1=O [Design D8.27, Fpp*LIPpl] (cyclo(F[dP][dP][NMeL]IP[dP][dL]))
Response given: 0.315
